B1: glmS ribozyme (parent)
chain: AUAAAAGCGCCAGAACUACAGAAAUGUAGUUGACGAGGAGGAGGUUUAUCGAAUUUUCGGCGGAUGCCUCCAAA

variants of: B1; test: kcat; higher = faster cleavage; RNA array; conditions: with glucosamine-6-phosphate
This sample holds only a part of the variants without activity.
Everything with kcat lower than 0.0005 s⁻¹ is No; everything else, including exactly 0.0005 s⁻¹, is Yes.

{"columns": ["VARIANT KEY", "LABEL"],
 "data": [
  ["C11A A36U G37C", "No"],
  ["A14C G37A", "No"],
  ["A15G A48C", "No"],
  ["A14U U69G", "No"]
]}

Q: Could you please find out whether A12C G29U U47G has kcat that meets 0.0005 s⁻¹ or exceeds it?
A: Yes

Q: Cool, now G32A A64G
A: Yes

Q: Item: C11A C50U A64U
A: No

Q: Now consider A33U U49G and answer again.
A: No

Q: And A14C A53G C58A C70G ?
A: No
